- study target: CXCR7 (Homo sapiens)
- Sequence (P25106 whole entry): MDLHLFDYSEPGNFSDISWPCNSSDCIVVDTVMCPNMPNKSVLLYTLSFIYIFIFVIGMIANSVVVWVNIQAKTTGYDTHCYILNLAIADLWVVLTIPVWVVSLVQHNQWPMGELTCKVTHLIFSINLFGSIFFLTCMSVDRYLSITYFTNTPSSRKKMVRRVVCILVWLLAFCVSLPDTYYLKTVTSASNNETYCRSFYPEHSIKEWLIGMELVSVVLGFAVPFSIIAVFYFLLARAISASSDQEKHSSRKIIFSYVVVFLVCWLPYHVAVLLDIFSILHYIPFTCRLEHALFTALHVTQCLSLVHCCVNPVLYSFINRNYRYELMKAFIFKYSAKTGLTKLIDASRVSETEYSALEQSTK
- Sequence (P32121 whole entry partner): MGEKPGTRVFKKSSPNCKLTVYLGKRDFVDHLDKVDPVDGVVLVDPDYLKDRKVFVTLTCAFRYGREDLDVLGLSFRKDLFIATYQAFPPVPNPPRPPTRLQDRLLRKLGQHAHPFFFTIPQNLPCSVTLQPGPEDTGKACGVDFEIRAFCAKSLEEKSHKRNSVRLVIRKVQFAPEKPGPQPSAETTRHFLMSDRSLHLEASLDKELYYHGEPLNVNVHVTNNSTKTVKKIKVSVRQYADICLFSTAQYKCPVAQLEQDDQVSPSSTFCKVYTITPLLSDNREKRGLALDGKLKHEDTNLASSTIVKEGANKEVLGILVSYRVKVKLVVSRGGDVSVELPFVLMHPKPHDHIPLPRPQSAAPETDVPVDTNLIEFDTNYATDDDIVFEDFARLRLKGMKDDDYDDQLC
- assay comment: PathHunter CHO-K1 CXCR7 b-arrestin recruitment assay (CXCR7 agonistic activity)
- assay conditions: PathHunter CHO-K1 CXCR7 b-arrestin cell line
Criterion: EC50 strictly under 90 nM. Met: Satisfied. Not met: Not satisfied.

{"compound": "CCC(=O)N1CCc2c(cccc2NCC(=O)N(CCNC)Cc2ncccc2C(F)(F)F)C1 [compound 409]", "qualitative label": "Satisfied"}
{"compound": "CN(C)CCN(CCc1ccc(C(F)(F)F)cc1)C(=O)CNc1cccc2c1CCN(CC1CC1)C2 [Example 56]", "qualitative label": "Satisfied"}
{"compound": "CCN1CCc2cccc(NCC(=O)N(CCN(C)C)Cc3ncccc3F)c2C1 [compound 528]", "qualitative label": "Satisfied"}
{"compound": "CCN1CCc2cccc(NCC(=O)N(Cc3ccccc3)C3CCNC3)c2C1 (racemic) [compound 378]", "qualitative label": "Not satisfied"}
{"compound": "CN(C)CCN(Cc1ccccc1C(F)(F)F)C(=O)Cc1cccc2c1CCN(CC1CC1)C2 [Example 6]", "qualitative label": "Satisfied"}
{"compound": "COCCN1CCc2c(CCC(=O)N(CCN(C)C)Cc3ncccc3Cl)cccc2C1 [Example 346]", "qualitative label": "Satisfied"}
{"compound": "CCN1CCc2cccc(NCC(=O)N(Cc3ccccc3C(F)(F)F)C(C)c3ccn(CC)n3)c2C1 (racemic) [compound 521]", "qualitative label": "Not satisfied"}
